System: MDA-MB-231 breast
Assay summary: NCI tumour cell line growth inhibition, 48 h
The reader will find reported log10(TGI) values listed item by item below.
Observation type: log10(TGI) (log10 of the value in µM)

[[record]]
compound = "CC(=O)c1c(C)[nH]c(-c2nc3ccc(N4CCN(C)CC4)cc3[nH]2)c1-c1ccccc1"
test_result = 1.36

[[record]]
compound = "CCc1nc2ccc(NCCN(C)C)c3c(=O)c4ccccc4n1c23"
test_result = 0.37

[[record]]
compound = "c1ccc2c3c([nH]c2c1)C(c1ccc(C2NCCc4c2[nH]c2ccccc42)cc1)NCC3 (centres undefined)"
test_result = -0.03

[[record]]
compound = "CN(CCCNC(=O)CCOCCOCCOCCNC(=O)Cc1ccc2ccc3cccc4ccc1c2c34)CCCNc1cc(-c2ccc3ccccc3c2)nc2ccccc12"
test_result = 0.03

[[record]]
compound = "CN1CCN(CCCOc2cccc3nc(Nc4ccc(Cl)c(C(F)(F)F)c4)ccc23)CC1"
test_result = 0.49


###

The reader will find reported TGI values listed item by item below.
Tested on: SW-620 colon
Assay summary: NCI tumour cell line growth inhibition, 48 h
Observation type: TGI

[[record]]
molecule = "CCOC(=O)C1=COC(C)(CCc2ccccc2)CC1=O (stereo not given)"
observation_type = "TGI"
test_result = "> 100 µM"

[[record]]
molecule = "CC1=C(Nc2ccc(N3CCN(C)CC3)cc2)C(=O)c2cncnc2C1=O"
observation_type = "TGI"
test_result = "8.04 µM"

[[record]]
molecule = "CCOC(=O)N(c1ccccc1)N(CC)C(=O)/C(C)=N/Nc1ccc([N+](=O)[O-])cc1"
observation_type = "TGI"
test_result = "36.7 µM"

[[record]]
molecule = "CCOC(=O)c1cnc2c(C)cccc2c1Nc1ccc(C(C)=O)cc1"
observation_type = "TGI"
test_result = "> 100 µM"

[[record]]
molecule = "CCN(CC)c1ccc2cc(C(=O)Nc3ccccn3)c(=N)oc2c1"
observation_type = "TGI"
test_result = "> 100 µM"

[[record]]
molecule = "COC(=O)c1ccc(Nc2nc3nc[nH]c3c(=O)[nH]2)cc1"
observation_type = "TGI"
test_result = "> 100 µM"

[[record]]
molecule = "C=C1C(=O)OC2/C=C(/C)C(OC(C)=O)C/C=C(\\C)C(OC(=O)C3(C)OC3C)C(O)C12 (stereo not given)"
observation_type = "TGI"
test_result = "> 100 µM"

[[record]]
molecule = "CCOc1ccc(NC(=O)CC2C(=O)Nc3ccccc3S2(=O)=O)cc1 (stereo not given)"
observation_type = "TGI"
test_result = "> 100 µM"

[[record]]
molecule = "CCc1nc2ccc(NCCN(C)C)c3c(=O)c4ccccc4n1c23"
observation_type = "TGI"
test_result = "4.99 µM"

[[record]]
molecule = "C=CCc1cc(OC)c2c(c1)C(OC)CC(c1ccc(OC)c(OC)c1)O2 (stereo not given)"
observation_type = "TGI"
test_result = "> 100 µM"

[[record]]
molecule = "CC(=O)OC1COC(n2c(=S)n(-c3ccccc3)c(=O)c3ccccc32)C(OC(C)=O)C1OC(C)=O (stereo not given)"
observation_type = "TGI"
test_result = "> 100 µM"

[[record]]
molecule = "CN(C)/N=C1\\CC(c2ccccc2)C(C#N)(C#N)C1(C#N)C#N (stereo not given)"
observation_type = "TGI"
test_result = "36.2 µM"

[[record]]
molecule = "O=C(Nc1nc2c(ncn2C2OC(CO)C(O)C2O)c(=O)[nH]1)c1ccccc1 (stereo not given)"
observation_type = "TGI"
test_result = "> 100 µM"

[[record]]
molecule = "C(=C\\N1CCCCC1)/c1nnnn1-c1ccccc1"
observation_type = "TGI"
test_result = "> 100 µM"

[[record]]
molecule = "COc1ccc(C(C2=C(O)COC2=O)c2cc3c(cc2O)OCO3)cc1OC (stereo not given)"
observation_type = "TGI"
test_result = "> 100 µM"

[[record]]
molecule = "Cc1ccc2c(c1)C(=O)C(C1OC(=O)c3ccccc31)C2 (stereo not given)"
observation_type = "TGI"
test_result = "> 100 µM"

[[record]]
molecule = "CC(C)(C)OC(=O)NCCCCC(NC(=O)c1ccccc1)C(N)=O (stereo not given)"
observation_type = "TGI"
test_result = "> 100 µM"

[[record]]
molecule = "CN1CSC(=S)N(Cc2ccccc2)C1"
observation_type = "TGI"
test_result = "12.4 µM"

[[record]]
molecule = "O=C1c2ccccc2C(=O)c2c(OCCOCCO)cccc21"
observation_type = "TGI"
test_result = "> 100 µM"

[[record]]
molecule = "CN(c1ccccc1)c1c(Cl)c(=O)oc2c1ccc1occc12"
observation_type = "TGI"
test_result = "> 100 µM"


###

The reader will find reported TGI values listed item by item below.
Tested on: NCI/ADR-RES ovarian
Assay summary: NCI tumour cell line growth inhibition, 48 h
Observation type: TGI

[[record]]
molecule = "CN1CSC(=S)N(Cc2ccccc2)C1"
test_result = "> 100 µM"

[[record]]
molecule = "O=C(COc1cccc(/C=C2\\CSc3ccccc3C2=O)c1)Nc1nccs1"
test_result = "11 µM"

[[record]]
molecule = "O=c1[nH]cnc2c1nnn2CCCCCCCCCCCCn1nnc2c(=O)[nH]cnc21"
test_result = "> 100 µM"

[[record]]
molecule = "CSC1NC(c2ccc(Cl)cc2)=C(C#N)C(=O)N1C1OCC(OC(C)=O)C(OC(C)=O)C1OC(C)=O (stereo not given)"
test_result = "> 100 µM"

[[record]]
molecule = "Oc1[nH]c2ccccc2c1/C=c1/cc2c(c(-c3ccc(F)cc3)n1)=Nc1ccccc1-2"
test_result = "1.25 µM"


###

System: SNB-19 CNS
Assay summary: NCI tumour cell line growth inhibition, 48 h
Observation type: TGI

[[record]]
molecule = "Cc1cc(=O)[nH]c(NN2C(Cl)C(=O)C2c2cccc(Cl)c2)n1 (stereo unspecified)"
test_result = "92.6 µM"

[[record]]
molecule = "C[Si](C)(c1ccccc1)[C@H]1CCCC=C1CCNC1c2ccccc2CCc2ccccc21"
test_result = "> 100 µM"

[[record]]
molecule = "O=C(OCC(Cl)(Cl)Cl)O[C@@H]1CCCC1(c1ccccc1)c1ccccc1"
test_result = "> 100 µM"

[[record]]
molecule = "COC(=O)[C@H]1CCCN1C(=O)[C@H]1CCCN1C(=O)[C@H](Cc1c[nH]c2ccccc12)NC(=S)Nc1cc(C(F)(F)F)cc(C(F)(F)F)c1"
test_result = "> 100 µM"

[[record]]
molecule = "Cc1ccc(S(=O)(=O)N/N=C(/c2nc3ccc([N+](=O)[O-])cc3[nH]c2=O)C(O)c2ccc(C(O)/C(=N\\NS(=O)(=O)c3ccc(C)cc3)c3nc4ccc([N+](=O)[O-])cc4[nH]c3=O)cc2)cc1 (stereo unspecified)"
test_result = "> 100 µM"

[[record]]
molecule = "O=P(O)(O)C1(P(=O)(O)O)CC1"
test_result = "> 100 µM"

[[record]]
molecule = "O=C1Nc2ccccc2/C1=c1\\[nH]c(=O)/c(=C\\c2ccc(OCc3ccccc3)cn2)[nH]c1=O"
test_result = "> 100 µM"

[[record]]
molecule = "CC(=O)N1CCn2c1nc1cc(Cl)ccc12"
test_result = "> 100 µM"

[[record]]
molecule = "COc1ccc(N=N/C(C(=O)C(F)(F)F)=C(\\O)c2ccc(Cl)cc2)cc1"
test_result = "> 100 µM"

[[record]]
molecule = "Cn1c(N/N=C/c2ccccc2)nc(-c2ccc([N+](=O)[O-])cc2)c(C#N)c1=O"
test_result = "> 100 µM"

[[record]]
molecule = "COc1ccc(C(OCC2OC(n3ccc(NC(=O)c4ccccc4)nc3=O)CC2OP2(=S)SCCS2)(c2ccccc2)c2ccc(OC)cc2)cc1 (stereo unspecified)"
test_result = "86.4 µM"

[[record]]
molecule = "C/C(=C\\c1csc(C)n1)[C@@H]1C[C@@H]2O[C@@H]2CCC[C@H](C)[C@H](O)[C@@H](C)C(=O)C(C)(C)[C@@H](O)CC(=O)O1"
test_result = "> 100 µM"

[[record]]
molecule = "COc1cccc(-c2cc(=O)c3ccccc3[nH]2)c1"
test_result = "> 100 µM"

[[record]]
molecule = "COc1ccc2oc(=O)c(-c3csc(C)n3)cc2c1"
test_result = "> 100 µM"

[[record]]
molecule = "CO[C@H]1C[C@@H]2CC[C@@H](C)[C@@](O)(O2)C(=O)C(=O)N2CCCC[C@H]2C(=O)O[C@H]([C@H](C)C[C@@H]2CC[C@@H](OCCO)[C@H](OC)C2)CC(=O)[C@H](C)C=C(C)[C@@H](O)[C@@H](OC)C(=O)[C@H](C)C[C@H](C)/C=C/C=C/C=C1C"
test_result = "19.5 µM"

[[record]]
molecule = "CN1CCN(CCCOc2cccc3nc(Nc4ccc(Cl)c(C(F)(F)F)c4)ccc23)CC1"
test_result = "3.14 µM"

